Subject Of Test: Pyruvate kinase (Staphylococcus aureus (strain MRSA252))
Sequence (whole entry): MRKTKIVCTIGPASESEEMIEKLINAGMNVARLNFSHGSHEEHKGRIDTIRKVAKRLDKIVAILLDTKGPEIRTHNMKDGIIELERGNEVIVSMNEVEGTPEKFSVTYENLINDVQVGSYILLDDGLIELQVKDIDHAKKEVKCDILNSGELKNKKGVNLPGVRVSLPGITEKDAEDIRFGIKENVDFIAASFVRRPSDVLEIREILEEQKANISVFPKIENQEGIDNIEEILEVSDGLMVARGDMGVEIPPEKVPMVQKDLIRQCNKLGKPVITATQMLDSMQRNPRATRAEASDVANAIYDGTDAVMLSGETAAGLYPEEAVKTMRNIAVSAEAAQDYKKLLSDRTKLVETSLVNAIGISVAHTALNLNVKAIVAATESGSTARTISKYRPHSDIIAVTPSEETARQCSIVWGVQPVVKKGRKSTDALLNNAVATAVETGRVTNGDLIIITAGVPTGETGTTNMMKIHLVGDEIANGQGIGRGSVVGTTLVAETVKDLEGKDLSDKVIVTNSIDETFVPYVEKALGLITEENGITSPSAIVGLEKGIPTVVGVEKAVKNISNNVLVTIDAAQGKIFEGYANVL
Assay: Inhibition of recombinant N-terminal His-tagged methicillin-resistant Staphylococcus aureus MRSA252 pyruvate kinase expressed in Escherichia coli BL21(DE3) at 0.1 uM using PEP as substrate measured after 5 mins by LDH-coupled assay relative to control
Condition Notes: Staphylococcus aureus subsp. aureus MRSA252

- Chemical Smiles: "Oc1ccc(Br)cc1-c1ccnc(-c2cc3ccc(Br)cc3[nH]2)c1"
  Subject Of Test: "Pyruvate kinase (Staphylococcus aureus (strain MRSA252))"
  inhibition / %: 41
- Chemical Smiles: "O=C(Nc1nc2ccc(Br)cc2s1)c1cccc(Cl)c1O"
  Subject Of Test: "Pyruvate kinase (Staphylococcus aureus (strain MRSA252))"
  inhibition / %: 43
- Chemical Smiles: "Brc1ccc(-c2c[nH]c3ccc(Br)cc23)cc1"
  Subject Of Test: "Pyruvate kinase (Staphylococcus aureus (strain MRSA252))"
  inhibition / %: 20
- Chemical Smiles: "O=C(Nc1ccc(Br)cc1)c1cc2ccc(Br)cc2s1"
  Subject Of Test: "Pyruvate kinase (Staphylococcus aureus (strain MRSA252))"
  inhibition / %: 43

* * *

Subject Of Test: Pyruvate kinase (Staphylococcus aureus (strain MRSA252))
Assay: Inhibition of recombinant N-terminal His-tagged methicillin-resistant Staphylococcus aureus MRSA252 pyruvate kinase expressed in Escherichia coli BL21(DE3) using PEP as substrate measured after 5 mins by LDH-coupled assay
Decide using IC50 alone. Strictly below 10 nM: Condition met. Equal to or above 10 nM: Condition not met.

- Compound: "O=C(/C=C/c1cc2ccccc2[nH]1)c1ccc(Br)cc1O"
  Subject Of Test: "Pyruvate kinase (Staphylococcus aureus (strain MRSA252))"
  Group: "Condition not met"
- Compound: "O=C(Nc1nc2ccc(Br)cc2s1)c1cc2cc(Br)ccc2[nH]1"
  Subject Of Test: "Pyruvate kinase (Staphylococcus aureus (strain MRSA252))"
  Group: "Condition not met"
- Compound: "O=C(Nc1nc2cc(Br)ccc2[nH]1)c1cc2cc(Br)ccc2[nH]1"
  Subject Of Test: "Pyruvate kinase (Staphylococcus aureus (strain MRSA252))"
  Group: "Condition met"
- Compound: "O=C(/C=C/c1c[nH]c2ccc(Br)cc12)c1cc2ccccc2[nH]1"
  Subject Of Test: "Pyruvate kinase (Staphylococcus aureus (strain MRSA252))"
  Group: "Condition not met"
- Compound: "O=C(/C=C/c1cc2ccccc2[nH]1)c1cc2ccc(Br)cc2[nH]1"
  Subject Of Test: "Pyruvate kinase (Staphylococcus aureus (strain MRSA252))"
  Group: "Condition met"
- Compound: "O=C(/C=C/c1ccc(Br)cc1O)c1cc2ccc(Br)cc2[nH]1"
  Subject Of Test: "Pyruvate kinase (Staphylococcus aureus (strain MRSA252))"
  Group: "Condition not met"
- Compound: "O=C(/C=C/c1cc(Br)ccc1O)c1cc2ccccc2[nH]1"
  Subject Of Test: "Pyruvate kinase (Staphylococcus aureus (strain MRSA252))"
  Group: "Condition not met"
- Compound: "O=C(/C=C/c1cccc(Br)c1O)c1cc2ccc(Br)cc2[nH]1"
  Subject Of Test: "Pyruvate kinase (Staphylococcus aureus (strain MRSA252))"
  Group: "Condition not met"
- Compound: "O=C(/C=C/c1cc(Br)ccc1O)c1cc2ccc(Br)cc2[nH]1"
  Subject Of Test: "Pyruvate kinase (Staphylococcus aureus (strain MRSA252))"
  Group: "Condition not met"
- Compound: "COc1ccc(Br)cc1C(=O)Nc1nc2ccc(Br)cc2s1"
  Subject Of Test: "Pyruvate kinase (Staphylococcus aureus (strain MRSA252))"
  Group: "Condition met"
- Compound: "COc1ccc(Br)cc1/C=C/C(=O)c1cc2ccc(Br)cc2[nH]1"
  Subject Of Test: "Pyruvate kinase (Staphylococcus aureus (strain MRSA252))"
  Group: "Condition met"
- Compound: "O=C(Nc1nc2ccc(Br)cc2s1)c1cc(Br)cc(Br)c1O"
  Subject Of Test: "Pyruvate kinase (Staphylococcus aureus (strain MRSA252))"
  Group: "Condition met"
- Compound: "O=C(/C=C/c1cc2ccc(Br)cc2[nH]1)c1ccccc1O"
  Subject Of Test: "Pyruvate kinase (Staphylococcus aureus (strain MRSA252))"
  Group: "Condition not met"
- Compound: "O=C(Nc1nc2cc(Br)ccc2[nH]1)c1cc(Br)ccc1O"
  Subject Of Test: "Pyruvate kinase (Staphylococcus aureus (strain MRSA252))"
  Group: "Condition not met"
- Compound: "O=C(Nc1nc2cc(Br)ccc2s1)c1cc2cc(Br)ccc2[nH]1"
  Subject Of Test: "Pyruvate kinase (Staphylococcus aureus (strain MRSA252))"
  Group: "Condition met"
- Compound: "O=C(Nc1cc(Br)ccc1O)c1cc2ccc(Br)cc2[nH]1"
  Subject Of Test: "Pyruvate kinase (Staphylococcus aureus (strain MRSA252))"
  Group: "Condition not met"
- Compound: "O=C(/C=C/c1cc2ccc(Br)cc2[nH]1)c1ccc(Br)cc1O"
  Subject Of Test: "Pyruvate kinase (Staphylococcus aureus (strain MRSA252))"
  Group: "Condition not met"
- Compound: "O=C(Nc1nc2cc(Br)ccc2[nH]1)c1cc2ccc(Br)cc2[nH]1"
  Subject Of Test: "Pyruvate kinase (Staphylococcus aureus (strain MRSA252))"
  Group: "Condition met"
- Compound: "O=C(c1ncc(-c2c[nH]c3cc(Br)ccc23)[nH]1)c1c[nH]c2ccccc12 [BROMODEOXYTOPSENTIN]"
  Subject Of Test: "Pyruvate kinase (Staphylococcus aureus (strain MRSA252))"
  Group: "Condition not met"

* * *

Subject Of Test: Pyruvate kinase (Staphylococcus aureus (strain MRSA252)) (UniProt Q6GG09)
Assay: Inhibition of recombinant N-terminal His-tagged methicillin-resistant Staphylococcus aureus MRSA252 pyruvate kinase expressed in Escherichia coli BL21(DE3) at 1 uM using PEP as substrate measured after 5 mins by LDH-coupled assay relative to control
Condition Notes: Staphylococcus aureus subsp. aureus MRSA252
Class class 1: inhibition at least 20%. Class class 0: inhibition below 20%.

- Chemical Smiles: "Oc1ccc(Br)cc1/C=N/c1nc2ccc(Br)cc2s1"
  Subject Of Test: "Pyruvate kinase (Staphylococcus aureus (strain MRSA252)) (UniProt Q6GG09)"
  Group: "class 1"
- Chemical Smiles: "O=C(Nc1ccc(Br)cc1)c1cc2ccccc2[nH]1"
  Subject Of Test: "Pyruvate kinase (Staphylococcus aureus (strain MRSA252)) (UniProt Q6GG09)"
  Group: "class 1"
- Chemical Smiles: "O=C(/C=C/c1cc2ccccc2[nH]1)c1cc(Br)ccc1O"
  Subject Of Test: "Pyruvate kinase (Staphylococcus aureus (strain MRSA252)) (UniProt Q6GG09)"
  Group: "class 0"
- Chemical Smiles: "O=C(Nc1nc2ccccc2s1)c1cc(Br)ccc1O"
  Subject Of Test: "Pyruvate kinase (Staphylococcus aureus (strain MRSA252)) (UniProt Q6GG09)"
  Group: "class 0"
- Chemical Smiles: "COc1ccc(Br)cc1/C=C1\\CCc2c([nH]c3ccccc23)C1=O"
  Subject Of Test: "Pyruvate kinase (Staphylococcus aureus (strain MRSA252)) (UniProt Q6GG09)"
  Group: "class 1"
- Chemical Smiles: "Cn1c(C(=O)Nc2nc3ccc(Br)cc3s2)cc2ccccc21"
  Subject Of Test: "Pyruvate kinase (Staphylococcus aureus (strain MRSA252)) (UniProt Q6GG09)"
  Group: "class 1"
- Chemical Smiles: "O=C(Nc1nc2cc(Br)ccc2s1)c1cc(Br)ccc1O"
  Subject Of Test: "Pyruvate kinase (Staphylococcus aureus (strain MRSA252)) (UniProt Q6GG09)"
  Group: "class 1"
- Chemical Smiles: "O=C(/C=C/c1cc2ccc(Br)cc2[nH]1)c1cccc(Br)c1O"
  Subject Of Test: "Pyruvate kinase (Staphylococcus aureus (strain MRSA252)) (UniProt Q6GG09)"
  Group: "class 1"
- Chemical Smiles: "O=C(/C=C/c1cc2ccc(Br)cc2[nH]1)c1cc2ccc(Br)cc2[nH]1"
  Subject Of Test: "Pyruvate kinase (Staphylococcus aureus (strain MRSA252)) (UniProt Q6GG09)"
  Group: "class 0"
- Chemical Smiles: "Oc1c(Br)cccc1CNc1nc2ccc(Br)cc2s1"
  Subject Of Test: "Pyruvate kinase (Staphylococcus aureus (strain MRSA252)) (UniProt Q6GG09)"
  Group: "class 0"
- Chemical Smiles: "Oc1ccc(Br)cc1-c1nnc(-c2cc3ccccc3[nH]2)o1"
  Subject Of Test: "Pyruvate kinase (Staphylococcus aureus (strain MRSA252)) (UniProt Q6GG09)"
  Group: "class 0"
- Chemical Smiles: "O=C(/C=C/c1c[nH]c2cc(Br)ccc12)c1c[nH]c2ccccc12"
  Subject Of Test: "Pyruvate kinase (Staphylococcus aureus (strain MRSA252)) (UniProt Q6GG09)"
  Group: "class 1"
- Chemical Smiles: "O=C(/C=C/c1c[nH]c2ccc(Br)cc12)c1c[nH]c2ccccc12"
  Subject Of Test: "Pyruvate kinase (Staphylococcus aureus (strain MRSA252)) (UniProt Q6GG09)"
  Group: "class 0"
- Chemical Smiles: "O=C(/C=C/c1cc2ccc(Br)cc2[nH]1)c1cc2cc(Br)ccc2[nH]1"
  Subject Of Test: "Pyruvate kinase (Staphylococcus aureus (strain MRSA252)) (UniProt Q6GG09)"
  Group: "class 1"
- Chemical Smiles: "COc1ccc(Br)cc1-c1nnc(-c2cc3ccccc3[nH]2)o1"
  Subject Of Test: "Pyruvate kinase (Staphylococcus aureus (strain MRSA252)) (UniProt Q6GG09)"
  Group: "class 0"
- Chemical Smiles: "COc1c(Br)cccc1C(=O)Nc1nc2ccc(Br)cc2s1"
  Subject Of Test: "Pyruvate kinase (Staphylococcus aureus (strain MRSA252)) (UniProt Q6GG09)"
  Group: "class 1"
- Chemical Smiles: "O=C(/C=C/c1cc2ccc(Br)cc2[nH]1)c1cc(Br)ccc1O"
  Subject Of Test: "Pyruvate kinase (Staphylococcus aureus (strain MRSA252)) (UniProt Q6GG09)"
  Group: "class 0"
- Chemical Smiles: "O=C(/C=C/c1c[nH]c2cc(Br)ccc12)c1cc2ccccc2[nH]1"
  Subject Of Test: "Pyruvate kinase (Staphylococcus aureus (strain MRSA252)) (UniProt Q6GG09)"
  Group: "class 1"
- Chemical Smiles: "Brc1ccc(-c2cc3cc(Br)ccc3[nH]2)cc1"
  Subject Of Test: "Pyruvate kinase (Staphylococcus aureus (strain MRSA252)) (UniProt Q6GG09)"
  Group: "class 1"
- Chemical Smiles: "O=C1c2ccc(Br)cc2C(=O)N1c1nc2ccc(Br)cc2s1"
  Subject Of Test: "Pyruvate kinase (Staphylococcus aureus (strain MRSA252)) (UniProt Q6GG09)"
  Group: "class 1"
